tested on: parental wild-type Ba/F3 cells; test: Ba/F3 (WT) cell proliferation assay (Alamar Blue); type: cell-based; settings: Mus musculus, BaF3; % at 3.00 μM, 72 hours; read-out: BaF3 WT prolif
Catalogue of inhibition at 3 µM values
metric: inhibition at 3 µM (%)

| compound | metric | observedValue |
| --- | --- | --- |
| O=C(NCC(F)(F)F)Nc1cccc(-c2cnc3cc(C=NOCCC4CCN(CCO)CC4)ccn23)c1 [Compound 1-49] | inhibition at 3 µM | 36 |
| O=C(NCC(F)(F)F)Nc1cccc(-c2cnc3cc(C=NOCC(O)CNC4CC4)ccn23)c1 (centres unmarked) [Compound 1-61] | inhibition at 3 µM | 30 |
| O=C(NCC(F)(F)F)Nc1cccc(-c2cnc3cc(C(=NO)C4CCC4)ccn23)c1 [Compound 1-28] | inhibition at 3 µM | 43 |
| O=C(NCC(F)(F)F)Nc1cccc(-c2cnc3cc(C=NOCCOCCO)ccn23)c1 [Compound 1-7] | inhibition at 3 µM | 20 |
| CCC(=NOC)c1ccn2c(-c3cccc(NC(=O)NCC(F)(F)F)c3)cnc2c1 [Compound 1-25] | inhibition at 3 µM | 46 |

* * *

Target: Ba/F3-TEL-FGFR3 cells (Homo sapiens, UniProt P22607)
Construct: fused on or other part: P41212 (Transcription factor ETV6)
Sequence (P22607 whole entry, change not shown, the tested form may be a part): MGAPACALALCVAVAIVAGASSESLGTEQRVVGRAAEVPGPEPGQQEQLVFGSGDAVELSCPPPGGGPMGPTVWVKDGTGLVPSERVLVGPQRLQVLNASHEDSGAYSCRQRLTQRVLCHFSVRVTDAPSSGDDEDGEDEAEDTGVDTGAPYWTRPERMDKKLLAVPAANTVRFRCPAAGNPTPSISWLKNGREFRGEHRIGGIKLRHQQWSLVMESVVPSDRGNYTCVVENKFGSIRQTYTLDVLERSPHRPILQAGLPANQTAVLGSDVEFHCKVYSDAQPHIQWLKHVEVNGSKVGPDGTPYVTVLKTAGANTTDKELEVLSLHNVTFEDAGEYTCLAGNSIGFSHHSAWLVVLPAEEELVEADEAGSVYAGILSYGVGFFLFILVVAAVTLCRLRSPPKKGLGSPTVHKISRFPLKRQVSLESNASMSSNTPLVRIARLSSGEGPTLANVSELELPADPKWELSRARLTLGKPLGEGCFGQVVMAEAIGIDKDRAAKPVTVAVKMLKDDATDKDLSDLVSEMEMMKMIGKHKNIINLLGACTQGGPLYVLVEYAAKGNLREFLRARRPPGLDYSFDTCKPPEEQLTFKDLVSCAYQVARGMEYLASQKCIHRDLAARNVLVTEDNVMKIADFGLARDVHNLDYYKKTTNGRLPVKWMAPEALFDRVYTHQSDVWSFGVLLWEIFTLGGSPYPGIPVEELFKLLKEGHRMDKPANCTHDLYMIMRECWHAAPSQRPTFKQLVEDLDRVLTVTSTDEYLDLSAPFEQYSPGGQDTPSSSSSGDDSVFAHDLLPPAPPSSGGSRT
Assay: Ba/F3-TEL-FGFR3 cell proliferation assay (Alamar Blue)
Format: cell-based
Settings: 72 hours; read-out: BaF3-TEL-FGFR3 prolif
Procedure: Ba/F3-TEL-FGFR3 & Ba/F3 (WT) Cell Proliferation Assays Stably transfected Ba/F3-TEL-FGFR3 cells were plated out into black 96-well tissue culture plates with clear bottoms in RPMI medium containing 10% FBS and 0.25 mg/ml G418 at a density of 5×10^3 cells/well (200 μl per well). […] Plates were placed in the incubator for 4-6 hours before reading plates at 535 nm (excitation)/590 nm (emission) on a Fusion plate reader (Packard). Where inhibition is high an IC50 can be determined.
Catalogue of GI50 values
metric: GI50 (nM)

| compound | metric | observedValue |
| --- | --- | --- |
| O=C(NCC(F)(F)F)Nc1cccc(-c2cnc3cc(C=NOCCOCCO)ccn23)c1 | GI50 | 420 |
| N=C(N)Nc1nc(CON=Cc2ccn3c(-c4cccc(NC(=O)NCC(F)(F)F)c4)cnc3c2)cs1 | GI50 | 2400 |
| C/C(=N\OCCOCCO)c1ccn2c(-c3cccc(NC(=O)NCC(F)(F)F)c3)cnc2c1 | GI50 | 32 |
| O=C(NCC(F)(F)F)Nc1cccc(-c2cnc3cc(C=NOCCCNC4CCOCC4)ccn23)c1 | GI50 | 3500 |
| Nc1nc(CON=Cc2ccn3c(-c4cccc(NC(=O)NCC(F)(F)F)c4)cnc3c2)cs1 | GI50 | 1300 |
| Cc1cc(CON=Cc2ccn3c(-c4cccc(NC(=O)NCC(F)(F)F)c4)cnc3c2)no1 | GI50 | 230 |
| COCCO/N=C(\C)c1ccn2c(-c3cccc(NC(=O)NCC(F)(F)F)c3)cnc2c1 | GI50 | 48 |
| O=C(NCC(F)(F)F)Nc1cccc(-c2cnc3cc(C=NOCC(O)CNC4CC4)ccn23)c1 (centres unmarked) | GI50 | 930 |

* * *

Catalogue of IC50 values
target: FGFR3 (Homo sapiens); construct: purchased Upstate; experiment: FGFR3 in vitro kinase inhibitory activity assay (TRF); assay type: biochemical; conditions: 8 μM ATP, 3 hours; read-out: FGFR3 IC50(μM) or % I

| molecule | IC50, µM |
| --- | --- |
| CN1CCC(NCCCON=Cc2ccn3c(-c4cccc(NC(=O)NCC(F)(F)F)c4)cnc3c2)CC1 [Compound 1-34] | 0.038 |
| COCCN1CCC(CCON=Cc2ccn3c(-c4cccc(NC(=O)NCC(F)(F)F)c4)cnc3c2)CC1 [Compound 1-48] | 0.023 |
| Cc1cc(CON=Cc2ccn3c(-c4cccc(NC(=O)NCC(F)(F)F)c4)cnc3c2)n(C)n1 [Compound 1-13] | 0.03 |
| CO/N=C(\C)c1ccn2c(-c3cccc(NC(=O)NCC(F)(F)F)c3)cnc2c1 [Compound 1-22] | 0.0051 |
| O=C(NCC(F)(F)F)Nc1cccc(-c2cnc3cc(C=NOCc4ccco4)ccn23)c1 [Compound 1-15] | 0.026 |
| COCCN(C)CCON=Cc1ccn2c(-c3cccc(NC(=O)NCC(F)(F)F)c3)cnc2c1 [Compound 1-40] | 0.028 |
| Cc1cc(CON=Cc2ccn3c(-c4cccc(NC(=O)NCC(F)(F)F)c4)cnc3c2)no1 [Compound 1-17] | 0.013 |
| O=C(NCC(F)(F)F)Nc1cccc(-c2cnc3cc(C=NOCc4ccccn4)ccn23)c1 [Compound 1-6] | 0.013 |
| CN1CCC(ON=Cc2ccn3c(-c4cccc(NC(=O)NCC(F)(F)F)c4)cnc3c2)CC1 [Compound 1-10] | 0.019 |
| CON=C(c1ccn2c(-c3cccc(NC(=O)NCC(F)(F)F)c3)cnc2c1)C1CC1 [Compound 1-24] | 0.015 |
| CS(=O)(=O)CCNCCON=Cc1ccn2c(-c3cccc(NC(=O)NCC(F)(F)F)c3)cnc2c1 [Compound 1-52] | 0.026 |
| O=C(NCC(F)(F)F)Nc1cccc(-c2cnc3cc(C=NOCCOCCO)ccn23)c1 [Compound 1-7] | 0.0185 |
| CC(C)Oc1cc(NC(=O)NCC(F)(F)F)cc(-c2cnc3cc(/C(=N\OCCO)C4CC4)ccn23)c1 [Compound 1-64] | 0.03 |
| O=C(NCC(F)(F)F)Nc1cccc(-c2cnc3cc(C=NOc4ncccn4)ccn23)c1 [Compound 1-5] | 0.0313 |
| O=C(NCC(F)(F)F)Nc1cccc(-c2cnc3cc(C=NOCC(O)CN4CCC(O)CC4)ccn23)c1 (stereo not shown) [Compound 1-43] | 0.024 |
| COCCOCCON=Cc1ccn2c(-c3cccc(NC(=O)NCC(F)(F)F)c3)cnc2c1 [Compound 1-2] | 0.019 |

Reference for the values: patent US8481531B2
